system: human IL-6; test: Inhibition of IL-6 production by stimulated human peripheral blood leukocytes in vitro (ELISA); type: cell-based; conditions: Homo sapiens, Leukocyte, PBL, zymosan stimulation, compound 10 μM; read-out: Percentage of inhibition of IL-6 production
For each record, write down the corresponding inhibition at 10 µM.
Answers are plain numbers, in %.

Known inhibition at 10 µM results, listed for orientation:
>  <compound>
CC[C@H]1OC(=O)[C@H](C)[C@@H](OC(=O)CCN2CCN(CCN(C)C)CC2)[C@H](C)[C@@H](O[C@@H]2O[C@H](C)C[C@H](N(C)C)[C@H]2O)[C@](C)(OC)C[C@@H](C)C(=O)N[C@H](C)[C@@H](O)[C@]1(C)O

>  <test.readout>
inhibition at 10 µM

>  <numeric.readout>
19

$$$$
>  <compound>
CC[C@H]1OC(=O)[C@H](C)[C@@H](OC(=O)CCN(C)CCO)[C@H](C)[C@@H](O[C@@H]2O[C@H](C)C[C@H](N(C)C)[C@H]2O)[C@](C)(OC)C[C@@H](C)C(=O)N[C@H](C)[C@@H](O)[C@]1(C)O

>  <test.readout>
inhibition at 10 µM

>  <numeric.readout>
26

$$$$
>  <compound>
CC[C@H]1OC(=O)[C@H](C)[C@@H](O[C@H]2C[C@@](C)(OC)[C@@H](O)[C@H](C)O2)[C@H](C)[C@@H](O[C@@H]2O[C@H](C)C[C@H](N(C)C)[C@H]2O)[C@](C)(O)C[C@@H](C)CN(C)[C@H](C)[C@@H](O)[C@]1(C)O [azithromycin, reference compound]

>  <test.readout>
inhibition at 10 µM

>  <numeric.readout>
20

$$$$
>  <compound>
CC[C@H]1OC(=O)[C@H](C)[C@@H](OC(=O)CCN(CC)CC)[C@H](C)[C@@H](O[C@@H]2O[C@H](C)C[C@H](N(C)C)C2O)[C@](C)(O)C[C@@H](C)CN(C)[C@H](C)[C@@H](O)[C@]1(C)O (stereo in doubt)

>  <test.readout>
inhibition at 10 µM

>  <numeric.readout>
0

$$$$
>  <compound>
CC[C@H]1OC(=O)[C@H](C)[C@@H](O[C@H]2C[C@@](C)(OC)[C@@H](O)[C@H](C)O2)[C@H](C)[C@@H](O[C@@H]2O[C@H](C)C[C@H](N(C)C)[C@H]2O)[C@](C)(OC)C[C@@H](C)C(=O)[C@H](C)[C@@H](O)[C@]1(C)O [clarithromycin, reference compound]

>  <test.readout>
inhibition at 10 µM

>  <numeric.readout>
28

$$$$

Let's switch to this compound now.
The measured inhibition at 10 µM associated with CC[C@H]1OC(=O)[C@H](C)[C@@H](OC(=O)CCN(CC)CC)[C@H](C)[C@@H](O[C@@H]2O[C@H](C)C[C@H](NC)[C@@H]2O)[C@](C)(OC)C[C@@H](C)C(=O)N[C@H](C)[C@@H](O)[C@]1(C)O reads 40

====

tested on: THP-1; type: cell-based; settings: human, 24 h, 50 μM
test.readout: Percentage of viable cells after treatment

Known Percentage of viable cells after treatment results, listed for orientation:
>  <compound>
CC[C@H]1OC(=O)[C@H](C)[C@@H](OC(=O)CCN(CC)CC)[C@H](C)[C@@H](O[C@@H]2O[C@H](C)C[C@H](N(C)C)[C@H]2O)[C@](C)(OC)C[C@@H](C)C(=O)[C@H](C)[C@@H](O)[C@]1(C)O

>  <experimental.system>
THP-1

>  <result>
>80%

$$$$
>  <compound>
CC[C@H]1OC(=O)[C@H](C)[C@@H](O[C@H]2C[C@@](C)(OC)[C@@H](O)[C@H](C)O2)[C@H](C)[C@@H](O[C@@H]2O[C@H](C)C[C@H](N(C)C)[C@H]2O)[C@](C)(O)C[C@@H](C)CN(C)[C@H](C)[C@@H](O)[C@]1(C)O [azithromycin, reference compound]

>  <experimental.system>
THP-1

>  <result>
>95%

$$$$

Let's switch to this compound now.
The measured Percentage of viable cells after treatment associated with CC[C@H]1OC(=O)[C@H](C)[C@@H](O[C@H]2C[C@@](C)(OC)[C@@H](O)[C@H](C)O2)[C@H](C)[C@@H](O[C@@H]2O[C@H](C)C[C@H](N(C)C)[C@H]2O)[C@](C)(OC)C[C@@H](C)C(=O)[C@H](C)[C@@H](O)[C@]1(C)O [clarithromycin, reference compound] reads >95%

====

For each record, write down the corresponding Percentage of viable cells after treatment.
system: Hep G2; assay type: cell-based; conditions: human, 24 h, 12.5 μM

Known Percentage of viable cells after treatment results, listed for orientation:
>  <molecule>
CC[C@H]1OC(=O)[C@H](C)[C@@H](OC(=O)CCN(CC)CC)[C@H](C)[C@@H](O[C@@H]2O[C@H](C)C[C@H](N(C)C)[C@H]2O)[C@](C)(OC)C[C@@H](C)C(=O)[C@H](C)[C@@H](O)[C@]1(C)O [Example 5]

>  <result>
>86%

$$$$
>  <molecule>
C=CC(=O)O[C@H]1[C@H](C)[C@@H](O[C@@H]2O[C@H](C)C[C@H](N(C)C)[C@H]2O)[C@](C)(OC)C[C@@H](C)C(=O)[C@H](C)[C@@H](O)[C@](C)(O)[C@@H](CC)OC(=O)[C@@H]1C [Example 4]

>  <result>
>85%

$$$$

Let's switch to this molecule now.
The reported Percentage of viable cells after treatment value, Hep G2, for CC[C@H]1OC(=O)[C@H](C)[C@@H](OC(=O)CCN(CC)CC)[C@H](C)[C@@H](O[C@@H]2O[C@H](C)C[C@H](N(C)C)C2O)[C@](C)(O)C[C@@H](C)CN(C)[C@H](C)[C@@H](O)[C@]1(C)O (stereo in doubt) [Example 12] reads >95%
